Where do these numbers come from? They come from patent US9556179B2.

# experimentalTarget: CK1δ (Homo sapiens (Human), UniProt P48730)
# Sequence (P48730 whole entry): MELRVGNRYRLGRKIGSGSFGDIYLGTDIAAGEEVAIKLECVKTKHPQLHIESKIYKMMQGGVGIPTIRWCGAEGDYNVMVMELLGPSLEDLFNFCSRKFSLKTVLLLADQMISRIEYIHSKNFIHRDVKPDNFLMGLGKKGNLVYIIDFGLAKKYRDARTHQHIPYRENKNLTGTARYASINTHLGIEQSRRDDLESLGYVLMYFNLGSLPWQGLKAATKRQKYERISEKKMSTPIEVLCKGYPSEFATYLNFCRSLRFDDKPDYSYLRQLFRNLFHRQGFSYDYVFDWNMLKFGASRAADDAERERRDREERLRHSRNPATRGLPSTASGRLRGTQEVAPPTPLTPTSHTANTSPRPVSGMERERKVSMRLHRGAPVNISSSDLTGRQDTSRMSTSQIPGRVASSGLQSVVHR
# experimentSummary: CK1δ kinase assay (Caliper LABCHIP electrophoretic separation of fluoresceinated peptide substrate and product)
# Format: biochemical
# setupConditions: 200 pM enzyme, 50 μM ATP, 22 hours at room temperature
pIC50: −log10 of the molar value.
Criterion: pIC50 meeting or surpassing 9. Met: true (1). Not met: false (0).

>>> print(df.to_string())
                                smilesentry  grouplabel
0  O=C(Nc1cn2nc(-c3c(-c4ccc(F)cc4)ncn3C3CCN(C[C@H](O)C(F)(F)F)CC3)ccc2n1)c1ccnc(F)c1    true (1)
1  Cc1cc(C(=O)Nc2cn3nc(-c4c(-c5ccc(F)cc5)nc(C)n4C)ccc3n2)on1   false (0)
2  O=C(Nc1cn2nc(-c3c(-c4ccc(F)cc4)nc4n3CCNC4)ccc2n1)c1cc(F)nc(F)c1    true (1)

# input Is pIC50 at least 9? Consider Cc1cc[nH]c1C(=O)Nc1cn2nc(-c3c(-c4ccc(F)cc4)nc(C)n3C)ccc2n1
# output false (0)

# input Is pIC50 at least 9? Consider Cc1nc(-c2ccc(F)cc2)c(-c2ccc3nc(NC(=O)c4ccc(C#N)nc4)cn3n2)n1C
# output true (1)

# input Is pIC50 at least 9? Consider CC(C)(F)C(=O)N1CCC(n2cnc(-c3ccc(F)cc3)c2-c2ccc3nc(NC(=O)c4ccnc(F)c4)cn3n2)CC1
# output true (1)

====

# experimentalTarget: UniProtKB P48730
pIC50: −log10 of the molar value.
Criterion: pIC50 meeting or surpassing 9. Met: condition met. Not met: condition not met.

In [3]: df
Out[3]:
                                   compound     grouplabel
0  Cc1nc(-c2ccc(F)cc2)c(-c2ccc3nc(NC(=O)c4ccc(O)nc4)cn3n2)n1C  condition met

# input Is pIC50 at least 9? Consider O=C(Nc1cn2nc(-c3c(-c4ccc(F)cc4)ncn3C3CN(CCO)C3)ccc2n1)c1ccnc(F)c1
# output condition met

# input Is pIC50 at least 9? Consider Cc1nocc1C(=O)Nc1cn2nc(-c3c(-c4ccc(F)cc4)nc(C)n3C)ccc2n1
# output condition not met

# input Is pIC50 at least 9? Consider Cc1nc(-c2ccc(F)cc2)c(-c2ccc3nc(NC(=O)c4coc(-c5ccncc5)n4)cn3n2)n1C
# output condition not met

# input Is pIC50 at least 9? Consider CC(=O)N1CCCC1C(=O)Nc1cn2nc(-c3c(-c4ccc(F)cc4)nc(C)n3C)ccc2n1 (stereo not drawn)
# output condition not met

# input Is pIC50 at least 9? Consider O=C(Nc1cn2nc(-c3c(-c4ccc(F)cc4)nc4n3CCN(CCC(F)(F)F)C4)ccc2n1)c1ccnc(F)c1
# output condition met

# input Is pIC50 at least 9? Consider O=C(Nc1cn2nc(-c3c(-c4ccc(F)cc4)ncn3C3CCN(C(=O)CN4CCOCC4)CC3)ccc2n1)c1ccnc(F)c1
# output condition met

# input Is pIC50 at least 9? Consider NC(=O)CN1CCC(n2c(C3CC3)nc(-c3ccc(F)cc3)c2-c2ccc3nc(NC(=O)c4ccnc(F)c4)cn3n2)CC1
# output condition met

# input Is pIC50 at least 9? Consider N#Cc1cccc(-c2cccc(C(=O)Nc3cn4nc(-c5c(-c6ccc(F)cc6)nc6ccccn56)ccc4n3)c2)c1
# output condition not met

# input Is pIC50 at least 9? Consider Cc1nc(-c2ccc(F)cc2)c(-c2ccc3nc(NC(=O)c4ccns4)cn3n2)n1C
# output condition met
